# Lookup of reported Ki keyed by entry
Tested target: calcium transmission in mitochondria of a rat's liver
Assay summary: Calcium transmission to rat liver mitochondria
Experimental parameters: rat liver mitochondria
Could you give me the number in µM? Just the number is fine.

Consider the following illustrative entries.
# Compound, Ki, µM
measured = [
    ("Cc1ccn(C(=O)NCCc2ccc(S(=O)(=O)NC(=O)NC3CCCCC3)cc2)n1", 450),
    ("COc1ccc(Cl)cc1C(=O)NCCc1ccc(S(=O)(=O)NC(=O)NC2CCCCC2)cc1 [Glibenclamide]", 47),
]

Here is another compound to look at.
Incoming: Look at this compound and give its reported Ki. Cc1ccc(S(=O)(=O)NC(=O)N[C@H]2[C@H]3CC[C@@](C)([C@H]2O)C3(C)C)cc1 [Glibornuride, reference compound]
Outgoing: 490
